biological target: Phospholipase A2, membrane associated (Homo sapiens, UniProt P14555); assay: Inhibition of sPLA2-IIA (unknown origin)-integrin alphaVbeta3 interaction in human K562 cells pretreated for 30 mins to immobilized sPLA2 before adding cells by phosphatase assay
Sequence (P14555 whole entry): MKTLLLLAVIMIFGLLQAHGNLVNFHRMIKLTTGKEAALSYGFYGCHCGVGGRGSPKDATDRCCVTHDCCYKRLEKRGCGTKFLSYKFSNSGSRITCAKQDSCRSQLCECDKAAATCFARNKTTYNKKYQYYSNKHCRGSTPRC
In plain terms, low IC50, meaning strictly below 70 µM, gives T, and everything else gives F.

{"mol": "CC[C@H](C)[C@H](NC(=O)[C@@H](CC(=O)O)NC(=O)[C@H](Cc1c[nH]c2ccccc12)NC(=O)[C@H](C)NC(=O)c1cc(-c2sc(NC(=O)c3ccccc3)nc2C)n[nH]1)C(=O)O", "label_class": "T"}
{"mol": "Cc1nc(NC(=O)c2ccccc2)sc1-c1cc(C(=O)NCC(=O)N[C@H](CCCN=C(N)N)C(=O)NCC(=O)N[C@H](CC(=O)O)C(=O)O)[nH]n1", "label_class": "F"}
{"mol": "Cc1nc(NC(=O)c2ccccc2)sc1-c1cc(C(=O)NCC(=O)N[C@H](CCCN=C(N)N)C(=O)NCC(=O)O)[nH]n1", "label_class": "F"}
{"mol": "C[C@H](NC(=O)[C@@H](CCCNC(=N)N)NC(=O)[C@@H](CC(N)=O)NC(=O)[C@@H](CCCNC(=N)N)NC(=O)[C@@H](Cc1ccccc1)NC(=O)c1ccc2nn3c(c2c1)OCc1cc(Cl)ccc1-3)C(=O)N[C@@H](Cc1ccc(O)cc1)C(=O)O", "label_class": "F"}

[in] Please state whether IC50 is below 70 µM for Cc1nc(NC(=O)c2ccccc2)sc1-c1cc(C(=O)NCC(=O)N[C@H](CCCN=C(N)N)C(=O)O)[nH]n1
[out] F

* * *

target: Phospholipase A2, membrane associated (Homo sapiens) (UniProt P14555); assay: Inhibition of sPLA2-IIA (unknown origin)-integrin alphaVbeta3 interaction in human K562 cells pretreated for 30 mins to immobilized sPLA2 before adding cells by phosphatase assay relative to BSA; format: cell-based
Activity calls are given as the source filed them. No cut-off for these calls is given here.
observable: Imax

Guide cases for Imax, answers given:
{"mol": "N=C(N)NCCC[C@@H](NC(=O)CN)C(=O)NCC(=O)N[C@H](CC(=O)O)C(=O)N[C@H](CC(=O)O)C(=O)N[C@H](CC(=O)O)C(=O)O", "study_system": "Phospholipase A2, membrane associated (Homo sapiens) (UniProt P14555)", "Imax": "inactive"}
{"mol": "Cc1nc(NC(=O)c2ccccc2)sc1-c1cc(C(=O)NCC(=O)N[C@H](CCCNC(=N)N)C(=O)O)[nH]n1", "study_system": "Phospholipase A2, membrane associated (Homo sapiens) (UniProt P14555)", "Imax": "77%"}
{"mol": "Cc1nc(NC(=O)c2ccccc2)sc1-c1cc(C(=O)NCC(=O)N[C@H](CCCNC(=N)N)C(=O)NCC(=O)N[C@H](CC(=O)O)C(=O)N[C@H](CC(=O)O)C(=O)O)[nH]n1", "study_system": "Phospholipase A2, membrane associated (Homo sapiens) (UniProt P14555)", "Imax": "inactive"}
{"mol": "CC(C)[C@H](NC(=O)[C@@H]1CCCN1C(=O)[C@@H](CC(N)=O)NC(=O)[C@@H](CCCNC(=N)N)NC(=O)[C@H](CCCCN)NC(=O)[C@H](Cc1c[nH]c2ccccc12)NC(=O)c1csc(-c2ccccn2)n1)C(=O)O", "study_system": "Phospholipase A2, membrane associated (Homo sapiens) (UniProt P14555)", "Imax": "< 30%"}
{"mol": "Cc1nc(NC(=O)c2ccccc2)sc1-c1cc(C(=O)O)[nH]n1", "study_system": "Phospholipase A2, membrane associated (Homo sapiens) (UniProt P14555)", "Imax": "inactive"}

[in] Return reported Imax; argument: Cc1nc(NC(=O)c2ccccc2)sc1-c1cc(C(=O)N[C@@H](C)C(=O)N[C@@H](Cc2c[nH]c3ccccc23)C(=O)N[C@H](CC(=O)O)C(=O)O)[nH]n1
[out] inactive

The reported numbers originate from ChEMBL document CHEMBL2331538.
